ASSAY_NOTES: Ocular tissue concentrations after oral and topical dosing
Type: in vivo, Rabbits
CONDITION_LABEL: rabbit, retina; oral, 2 mg/kg for seven days; read-out: retinal memantine concentration

COMPOUND	concentration at 7 days [ng/mL]
CC12CC3CC(C)(C1)CC(N)(C3)C2.Cl [memantine, hydrochloride]	108

---

ASSAY_NOTES: Ocular tissue concentrations after oral and topical dosing
Assay type: in vivo, Rabbits
CONDITION_LABEL: rabbit, retina, 35 μl of a 0.1% aqueous solution; topical, 35 μl of 0.1% aqueous solution twice a day for 7 days; read-out: retinal memantine concentration
Description: Ocular tissue concentrations were also determined after oral and topical dosing. Rabbits were dosed topically with 35 μl of a 0.1% aqueous solution of memantine twice a day for 7 days. Another subset of rabbits was dosed orally with 2 mg/kg memantine for seven days. At the end of the dosing period ocular tissue concentrations were quantified. The retinal memantine concentrations from topical and oral dosing were essentially equivalent (107 ng/ml and 108 ng/ml, respectively).
OUTCOME_MEASURE: concentration at 7 days (ng/mL)

MOLECULE	OBS_VALUE
CC12CC3CC(C)(C1)CC(N)(C3)C2.Cl [memantine, hydrochloride]	107
